Attribute: INHIBITION
test system: Plasmodium berghei; assay: Screen against P. berghei liver stage (PbLuc), transformed with Luciferase, at 2uM; type: functional, HepG2; details: tested at 2 uM
Hit rate of the full screen: of about 68,000 compounds, about 2,700 (4%) showed an effect of 50% or more. For the sample, strong results were picked, then their nearest neighbours and some compounds at random.
Kindly provide the numeric value in % only, without the unit symbol.

Cn1c(N)nnc1SCc1c(F)cccc1Br :: -3.53
COc1ccc(-c2ccc(C3CNCCO3)nc2)cc1 (configuration not stated) :: 84.26
Cc1ccc(-n2nnc(C(=O)NC(C)C)c2C2CC2)cc1 :: 82.5
COc1ccc(-c2cnc(N(C)C)nc2C2CNCCO2)cc1 (configuration not stated) :: 38.42
Cn1c(N)nnc1SCc1ccc(Cl)cc1Br :: 45.82

Now for a further compound.
Returns the measured INHIBITION for the input compound. Input: CCOCCCC(=O)Nc1ccc(OCc2noc(C3CC3)n2)cc1 18.09

* * *

system: Plasmodium berghei; assay: Screen against P. berghei liver stage (PbLuc), transformed with Luciferase, at 2uM; type: functional, HepG2; details: tested at 2 uM
About 2,700 (4%) of roughly 68,000 compounds showed an effect of 50% or more. The sample as a whole holds a higher share of strong results than the screen did.
quantity measured: INHIBITION (%)
Form entry: value (%) — number only.

CC(=O)N1CC[C@@H]2CN(Cc3ccncc3)S(=O)(=O)[C@@H]2CC1 :: -66.17
Cc1cc(C[C@@H]2COC[C@@H]2NC(=O)CN2CCCC2)on1 :: -56.02
Cc1cc(C[C@@H]2COC[C@@H]2NC(=O)CCN2Cc3ccccc3C2)on1 :: 14.1
Cc1cc(C[C@@H]2COC[C@@H]2NC(=O)CN2CCc3ccccc3C2)on1 :: 54.49

Shifting focus to the compound that follows.
Which INHIBITION reading was recorded for the compound Cc1cc(C[C@@H]2COC[C@H]2NCc2ccc(Cl)c(Cl)c2)on1 ? -44.61

* * *

system: Plasmodium berghei; assay: Screen against P. berghei liver stage (PbLuc), transformed with Luciferase, at 2uM; format: functional, HepG2; conditions: tested at 2 uM
Hit rate of the full screen: of about 68,000 compounds, about 2,700 (4%) showed an effect of 50% or more. Many of the other results were omitted from the sample, so strong results are more common in it than they were.
quantity measured: INHIBITION (%)
All answers are understood in %, so give the number only.

In the examples that follow, each entry is paired with its recorded INHIBITION.
Cc1cnn(C2CCCN(C(=O)c3sccc3-n3cnnn3)C2)c1 (stereo unspecified) :: 51.21
Cc1cnn(C2CCCN(C(=O)c3ccn(C)c(=O)c3)C2)c1 (stereo unspecified) :: 16.51

// switching to the query compound
Endpoint output: INHIBITION of Cc1cnn(C2CCCN(C(=O)c3ccccc3-n3cnnn3)C2)c1 (stereo unspecified) . Value? -31.16

* * *

INHIBITION reference
test system: Plasmodium berghei; test: Screen against P. berghei liver stage (PbLuc), transformed with Luciferase, at 2uM; format: functional, HepG2; conditions: tested at 2 uM
Out of some 68,000 compounds screened, about 2,700 (4%) showed an effect of 50% or more. For the sample, strong results were picked, then their nearest neighbours and some compounds at random.
# unit: % | format: bare number

Solved entries:
Cc1cc(C2CCCN2C(=O)c2ccc(OCC(N)=O)cc2)no1 (centres undefined) :: 34.18
CC(=O)NC1CCCN(C(=O)NCc2cc[nH]n2)C1 (centres undefined) :: 45.83
O=C(Cc1ccc2c(c1)OCO2)N1CCCN(c2nccs2)CC1 :: 79.21
Cc1ccc(S(=O)(=O)N2CC[C@@H]3C[C@H](NC(=O)c4ccncc4)[C@@H]32)cc1 :: 20.51
O=C(Cc1ccc2c(c1)CCO2)N1CCN(c2nccs2)CC1 :: -11.34

I'd like to know its INHIBITION. The compound in question is CCCN1C[C@H](NC(=O)c2cccs2)[C@@H](c2ccc(OC)cc2)C1 53.65

* * *

system: Plasmodium berghei; test: Screen against P. berghei liver stage (PbLuc), transformed with Luciferase, at 2uM; format: functional, HepG2; settings: tested at 2 uM
In all, about 68,000 compounds went through this assay and about 2,700 (4%) showed an effect of 50% or more. For the sample, strong results were picked, then their nearest neighbours and some compounds at random.
So basically: is INHIBITION under 30%? Then criterion met. Not under? Then criterion not met.

Please review the following examples before continuing.
c1ccc(CN2CCC(CNc3ncnc4c3CCNCC4)CC2)cc1 :: criterion not met
CC(C)NC(=O)CNC(=O)N1CCc2c([nH]c3ccc(Cl)cc23)C1 :: criterion not met
CS(=O)(=O)CCN1CCSCC1c1ccc(Cl)cc1 (stereo not given) :: criterion met
O=C(c1ccncc1)N1CCCn2c(CN3CCCC3)nnc2C1 :: criterion met
c1ccc(CN2CCC(CCNc3ncnc4c3CCNCC4)C2)cc1 (stereo not given) :: criterion not met

Below 30% on INHIBITION? Entry COCCc1ncc(CN2C[C@@H](C(=O)O)[C@H](C(C)C)C2)cn1 criterion met

Would you kindly verify if INHIBITION of COc1ccnc(N2CCN(C(=O)Cc3ccc(C)s3)CC2)n1 is strictly less than 30%? criterion met

* * *

tested on: Plasmodium berghei; assay: Screen against P. berghei liver stage (PbLuc), transformed with Luciferase, at 2uM; assay type: functional, HepG2; details: tested at 2 uM
The whole screen tested about 68,000 compounds, of which about 2,700 (4%) showed an effect of 50% or more. The sample holds strong results, similar compounds and a random draw of the others, so the mix is not that of the screen.
quantity measured: INHIBITION

The cases that follow already have their INHIBITION on record.
CCCc1nc(CNc2cccc(C(=O)N3CCCC(O)C3)c2)no1 (configuration not stated) :: 24.55%
CC(=O)N1CCN(CCNc2ncc(Br)cc2C)CC1 :: 12.43%
CO[C@H]1CN(C(=O)OC(C)(C)C)CC1NCc1ccco1 (some centres not stated) :: 32.73%
Cc1noc(C)c1CNc1cccc(C(=O)N2CCCC(O)C2)c1 (configuration not stated) :: -82.3%

Would you mind telling me what INHIBITION value was observed for Cc1noc(CNc2cccc(C(=O)N3CCCC(O)C3)c2)n1 (configuration not stated) ? 60.9%

Would you mind telling me what INHIBITION value was observed for Cc1nc(C)n(CC2CCCN2CC(=O)NCCC2=CCCCC2)n1 (configuration not stated) ? 24.17%

Reported INHIBITION for Cc1ccccc1-n1c(C)cc(C(=O)N2CCn3c(C)nnc3C2)c1C : what is it? -61.5%

Sample O=C(c1ncoc1C1CC1)N1CCCN(CCCc2ccccc2)CC1 — what was its INHIBITION? 26.3%

Entry CCC(C)[C@H](NC(=O)c1ccc(F)cc1-n1cnnn1)C(=O)OC (some centres not stated) : reported INHIBITION = ? 24.67%

Which INHIBITION value is on record for CC1CN(Cc2nc(Cc3ccccc3F)no2)CCN1C (configuration not stated) ? 17.25%

Fill in the blank: the reported INHIBITION of Cc1noc(CNc2ccccc2C(=O)N2CCCC(O)C2)n1 (configuration not stated) is ____. 74.11%

# INHIBITION lookup, item CCC(C)N(Cc1ccncc1)C(=O)CCC(=O)OC (configuration not stated) -28.11%

* * *

tested on: Plasmodium berghei; assay: Screen against P. berghei liver stage (PbLuc), transformed with Luciferase, at 2uM; format: functional, HepG2; conditions: tested at 2 uM
In all, about 68,000 compounds went through this assay and about 2,700 (4%) showed an effect of 50% or more. This excerpt belongs to a sample that is enriched for strong results.
quantity measured: INHIBITION

O=C1CN(C(=O)CNC(CC(F)(F)F)c2ccc(F)cc2)CCN1 (stereo unspecified) :: 7.05%
Cc1cc(CN(C)C2CCCN(Cc3noc(C)n3)C2)on1 (stereo unspecified) :: -2.71%
Cc1nnc(CN(C)C2CCCN(Cc3noc(C4CC4)n3)C2)o1 (stereo unspecified) :: 62.13%
c1cnc(N2CCOCC3(CN(Cc4nccs4)CCO3)C2)nc1 (stereo unspecified) :: 14.39%
CC(c1ccccn1)N(C)C(=O)NCCn1c(=O)oc2ccccc21 (stereo unspecified) :: 40.4%

Quick one: INHIBITION of CCc1nnc(CN(C)C2CCCN(Cc3noc(C4CC4)n3)C2)o1 (stereo unspecified) ? -7.13%

So what does the record say about INHIBITION for CN(Cc1noc(C2CC2)n1)C1CCN(Cc2nnc(C3CC3)o2)C1 (stereo unspecified) ? 51.19%

What value of INHIBITION has been reported for the following compound? CCN(CC)[C@@H]1CN(S(=O)(=O)c2cn(C)cn2)[C@@H]2CCCO[C@H]12 20.21%

# query: INHIBITION of entry CC(C)c1nc(CN(C)C2CCN(Cc3nnc(C4CC4)o3)C2)no1 (stereo unspecified) 37.9%

Quick one: INHIBITION for Cc1nc(CN2CCCC(N(C)Cc3nnc(C4CC4)o3)C2)no1 (stereo unspecified) ? -10.47%

Fill blank: measured INHIBITION of the compound Cn1cc(CN2CCO[C@H]3CN(Cc4ccsc4)C[C@H]32)cn1 is ____. 1.88%
